Biological target: Peroxisome proliferator-activated receptor gamma (Homo sapiens) (UniProt P37231)
Sequence (whole entry): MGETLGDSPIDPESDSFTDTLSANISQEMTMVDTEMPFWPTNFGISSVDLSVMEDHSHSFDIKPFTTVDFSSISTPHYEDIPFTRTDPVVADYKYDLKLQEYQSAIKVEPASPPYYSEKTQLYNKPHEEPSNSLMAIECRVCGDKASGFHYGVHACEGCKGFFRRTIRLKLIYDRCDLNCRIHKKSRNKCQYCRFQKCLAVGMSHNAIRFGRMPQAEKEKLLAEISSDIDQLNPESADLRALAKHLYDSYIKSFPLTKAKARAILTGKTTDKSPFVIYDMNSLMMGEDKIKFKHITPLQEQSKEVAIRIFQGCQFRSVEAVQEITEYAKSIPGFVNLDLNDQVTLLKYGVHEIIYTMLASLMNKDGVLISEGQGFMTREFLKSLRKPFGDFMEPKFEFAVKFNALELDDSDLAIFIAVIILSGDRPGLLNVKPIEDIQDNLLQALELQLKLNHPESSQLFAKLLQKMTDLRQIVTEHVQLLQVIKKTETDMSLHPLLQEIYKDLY
Experiment: In vitro agonist activity against human PPAR-gamma in transactivation assay at 100 nM
Type: functional
Below, each of the molecules is paired with its reported Fold activation value.

MOLECULE: COC(=O)c1c(SC)cc(-c2ccc(OCCN3CCCCC3)cc2)oc1=O
Fold activation: 3

MOLECULE: CN(CCOc1ccc(CC2SC(=O)NC2=O)cc1)c1ccccn1 (configuration not stated)
Fold activation: 28

MOLECULE: CSc1cc(-c2ccc(OCCN(C)C)cc2)oc(=O)c1C#N
Fold activation: 6

MOLECULE: C[S+]([O-])CCOc1ccc(-c2cc([S+](C)[O-])c(C#N)c(=O)o2)cc1 (configuration not stated)
Fold activation: 14

MOLECULE: CSc1cc(-c2ccc(OCCN(C)Cc3ccccc3)cc2)oc(=O)c1C#N
Fold activation: 4

MOLECULE: CCSCCOc1ccc(-c2cc(SCC)c(C#N)c(=O)o2)cc1
Fold activation: 11

MOLECULE: CSc1cc(-c2ccc(OCCSc3ccccc3)cc2)oc(=O)c1C#N
Fold activation: 5
